- MEASURED ON: HLA-B*40:01
- MEASUREMENT NOTES: IEDB peptide-MHC binding, purified MHC/direct/fluorescence; filed as Kd, often an IC50 or EC50 that approximates it; bounds were set here for any values at or beyond the usual limits of such assays
- REPORTED CONDITIONS: source organism: Yersinia pestis Nepal516
pKd: −log10 of the molar value.
PROPERTY NAME: pKd

Q. Requested field: pKd. Item: QQSEARRML
A. ≤ 4.70

----------
- MEASURED ON: HLA-A*02:01
- MEASUREMENT NOTES: IEDB peptide-MHC binding, purified MHC/direct/fluorescence; filed as Kd, often an IC50 or EC50 that approximates it; bounds were set here for any values at or beyond the usual limits of such assays
- REPORTED CONDITIONS: source organism: Vibrio cholerae
PROPERTY NAME: Kd (nM)
State the answer as a number, implicitly in nM.

Q. Requested field: Kd. Item: MMFDAMGAL
A. 328

----------
- MEASURED ON: HLA-B*48:01
- MEASUREMENT NOTES: IEDB peptide-MHC binding, purified MHC/competitive/fluorescence; filed as Kd, often an IC50 or EC50 that approximates it; bounds were set here for any values at or beyond the usual limits of such assays
- REPORTED CONDITIONS: source organism: Vibrio cholerae MAK 757
PROPERTY NAME: Kd (nM)
State the answer as a number, implicitly in nM.

Q. Requested field: Kd. Item: RQVWWKALL
A. 22.6

----------
- MEASURED ON: HLA-B*08:01
- MEASUREMENT NOTES: IEDB peptide-MHC binding, purified MHC/direct/fluorescence; filed as Kd, often an IC50 or EC50 that approximates it; bounds were set here for any values at or beyond the usual limits of such assays
- REPORTED CONDITIONS: source organism: Vibrio parahaemolyticus
PROPERTY NAME: Kd

Q. Requested field: Kd. Item: EIPGSPGSY
A. ≥ 20 µM

----------
- MEASURED ON: HLA-B*15:17
- MEASUREMENT NOTES: IEDB peptide-MHC binding, purified MHC/competitive/fluorescence; filed as Kd, often an IC50 or EC50 that approximates it; bounds were set here for any values at or beyond the usual limits of such assays
- REPORTED CONDITIONS: source organism: Giardia lamblia ATCC 50803
PROPERTY NAME: Kd

Q. Checklist item: Kd tested on HLA-B*15:17, entry RTMPLSRFT , value?
A. ≥ 20 µM

----------
- MEASURED ON: HLA-B*46:01
- MEASUREMENT NOTES: IEDB peptide-MHC binding, purified MHC/competitive/fluorescence; filed as Kd, often an IC50 or EC50 that approximates it; bounds were set here for any values at or beyond the usual limits of such assays
- REPORTED CONDITIONS: source organism: Entamoeba histolytica HM-1:IMSS
pKd: −log10 of the molar value.
PROPERTY NAME: pKd

Q. Requested field: pKd. Item: TLPGCLIIL
A. ≤ 4.70

----------
- MEASURED ON: HLA-A*03:01
- MEASUREMENT NOTES: IEDB peptide-MHC binding, purified MHC/direct/fluorescence; filed as Kd, often an IC50 or EC50 that approximates it; bounds were set here for any values at or beyond the usual limits of such assays
- REPORTED CONDITIONS: source organism: Bacillus anthracis str. 'Ames Ancestor'
PROPERTY NAME: Kd

Q. Requested field: Kd. Item: TKAGMAQYL
A. ≥ 20 µM
